System: BDF1 mice, C1498 leukemia ip, median survival T/C
Experiment: NCI In Vivo Anticancer Drug Screen. Data for tumor model C1498 Myeloid Leukemia (intraperitoneal) in B6D2F1 (BDF1) mice
Conditions: endpoint: median survival time; dose: 50.0 mg/kg/injection; schedule: Q01DX010 (ip); vehicle: saline; higher = longer survival
Toxic doses and inconclusive results are not listed.
# maps each entry to its T/C

molecule | T/C
Cc1cc2nc3c(=O)[nH]c(=O)nc-3n(CC(O)C(O)C(O)C(O)CO)c2cc1C (stereo unspecified) | 100 % of control
CSc1ncnc2nc[nH]c12 | 100 % of control
CN(C)/N=N/c1nc[nH]c1C(N)=O | 112 % of control
CC(=O)Nc1ccc2nc3ccc(NC(C)=O)cc3[n+](-c3ccccc3)c2c1 | 96 % of control
COc1cc(-c2ccc(Nc3ccccc3C(=O)O)c(OC)c2)ccc1Nc1ccccc1C(=O)O | 104 % of control
O=c1c(O)cccc2cc(O)c(O)c(O)c12 | 100 % of control
